target: T1, human PD-L1^ECD-hFc protein (human, UniProt Q9NZQ7 19-239, biotinylated in the PD-1 binding ELISA (Table 3) and in the Octet assay (Table 12)); assay: BLI Octet Red 96, biotinylated PD-L1-hFc on SA sensor
T1 construct: The plain and the biotinylated protein are kept as one molecule; also called PD-L1-hFc; Immunogen A; not shown: human IgG Fc fragment (hFc)
T1 sequence (Q9NZQ7 19-239): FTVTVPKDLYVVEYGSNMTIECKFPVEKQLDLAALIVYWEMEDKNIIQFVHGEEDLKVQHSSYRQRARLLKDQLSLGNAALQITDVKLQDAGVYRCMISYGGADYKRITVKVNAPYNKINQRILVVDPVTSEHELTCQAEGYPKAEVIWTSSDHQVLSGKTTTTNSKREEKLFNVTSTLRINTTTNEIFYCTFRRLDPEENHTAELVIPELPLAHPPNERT
Readout Label: koff (s⁻¹)
Respond with the bare value in s⁻¹.

>>> endpoint_result("chimeric anti-PD-L1 antibody 105C5D7 (antibody, V domains shown, Purified from hybridoma of Harbour H2L2 mice: human variable regions, rat constant regions) VH: EVQLVESGGGLVQPGGSLRLSCAASGFTFSSYWMSWVRQAPGKGLEWVANIKQDGNEKYYVDSVKGRFTISRDNAKNSLYLQMNSLRAEDTAVYYCARNIKWGDAFDIWGQGTMVTVSS VL: DIQMTQSPSSLSASVGDRVTITCRASQSISSYLNWYQQKPGKAPKLLIYAASSLQSGVPSRFSGSGSGTDFTLTISSLQPEDFAIYSCQQSYSIPLTFGGGTKVEIK")
0.000368

Look up koff of chimeric anti-PD-L1 antibody 78A11F6 (antibody, V domains shown, Purified from hybridoma of Harbour H2L2 mice: human variable regions, rat constant regions) VH: EVQLVESGGGLVQPGGSLRLSCAASGITFSSYWMSWVRQTPGKGLEWVANIKQDGSEKYYVKSVKGRFTISRDNAKNSLYLQMNSLRAEDTAVYYCVRDRAVPGTGAFDIWGQGTMVIVSS VL: DIQMTQSPSTLSASVGDRVTITCRASQSISNWLAWYQQKPGKAPKLLIYKASSLESGVPSRFSGSGSGTEFTLTISSLQPDDFATYYCQQYDSSLFTFGQGTKLEIK and report it. 3.64e-05
